EXPERIMENT_SUMMARY: Equilibration in solvents and aqueous media, solid form by XRPD
Assay type: physicochemical
TEST_CONDITIONS: Acetone
Where a name gives a salt, the structure may show the parent alone.
MEASURED_ENDPOINT: XRPD form after equilibration

{"MOLECULE": "Cc1[nH]c2ccccc2c1CCNCc1ccc(/C=C/C(=O)NO)cc1 [Form A of the maleate salt]", "TEST_RESULT": "No change"}
{"MOLECULE": "Cc1[nH]c2ccccc2c1CCNCc1ccc(/C=C/C(=O)NO)cc1 [Free Base]", "TEST_RESULT": "No change"}
{"MOLECULE": "Cc1[nH]c2ccccc2c1CCNCc1ccc(/C=C/C(=O)NO)cc1 [Form A of the mesylate salt]", "TEST_RESULT": "No change"}
